Listed here: items and their measured Kp uu.
- PROCEDURE SUMMARY: Ratio of unbound drug level in mouse brain to plasma
- Assay type: ADME
- REPORTED CONDITIONS: read-out: K(p,uu,brain)
METRIC NAME: Kp uu

| SMILES DATA | METRIC NAME | RELATION SIGN | MEASURED RESULT |
| --- | --- | --- | --- |
| O=C(O)[C@H]1NCCC[C@H]1C(=O)N1CCc2ccccc2[C@H]1CN1C(=O)c2ccccc2C1=O | Kp uu | < | 0.01 |
| O=C1c2ccccc2C(=O)N1C[C@@H]1c2ccccc2CCN1C(=O)C1CCCCC1 | Kp uu | = | 0.3 |
| O=C(O)[C@H]1CCCC[C@H]1C(=O)N1CCc2ccccc2[C@H]1CN1C(=O)c2ccccc2C1=O | Kp uu | < | 0.01 |
| O=C(O)[C@H]1CCCC[C@H]1C(=O)N1CCc2ccccc2[C@H]1Cc1ccccc1 | Kp uu | = | 0.9 |
